All figures here come from patent US9133104B2.

System: U937 cancer cell line
Assay: Cell inhibition assay (SRB cell viability), U937
Type: cell-based
Settings: Homo sapiens, U-937, U937 cells, 72 h, IC50 range
Experimental: The corresponding cancer cell lines (Hela, U937 and HUT) growing in log phase were harvested and seeded at 1000 cells/well (200 ul final volume) into 96-well tissue culture plates. […] Data were expressed as a percentage inhibition of the control, measured in the absence of inhibitor, as follows:— % inhibition=100−((S^i/S^o)×100) where S^i is the signal in the presence of inhibitor and S^o is the signal in the presence of DMSO. […]
Metric: IC50

Compound	Result
O=C(CCCCCCC(=O)Nc1ccc(S(=O)(=O)N[C@H](C(=O)OC2CCCC2)c2ccccc2)cc1)NO [Compound 22]	330 to 3300 nM
O=C(CCCCCCC(=O)N1CCc2c([nH]c3ccccc23)C1C(=O)NC(C(=O)OC1CCCC1)c1ccccc1)NO (centres unmarked) [Compound 9]	330 to 3300 nM
O=C(NO)c1cc2ccc(CNCC3CCC(CN[C@H](C(=O)OC4CCCC4)c4ccccc4)CC3)cc2s1 (some centres unmarked) [Compound 126]	< 330 nM

Problem: I'd like to know its IC50. The compound in question is CC(OC(C)(C)C)[C@H](NCc1ccc(CNCc2ccc3cc(C(=O)NO)sc3c2)cc1)C(=O)OC1CCCC1 (some centres unmarked) [Compound 108]
Result: 330 to 3300 nM

Problem: I'd like to know its IC50. The compound in question is O=C(CCCCCCC(=O)N1Cc2[nH]c3ccccc3c2C[C@@H]1C(=O)N[C@@H](Cc1ccccc1)C(=O)O)NO [Compound 6]
Result: > 3300 nM

Problem: I'd like to know its IC50. The compound in question is O=C(CCCCCCC(=O)Nc1cccc(COC(=O)N[C@@H](Cc2ccccc2)C(=O)OC2CCCC2)c1)NO [Compound 94]
Result: 330 to 3300 nM

Problem: I'd like to know its IC50. The compound in question is O=C(CCCCCCC(=O)N1Cc2[nH]c3ccccc3c2C[C@H]1C(=O)N[C@H](C(=O)OC1CCCC1)c1ccccc1)NO [Compound 3]
Result: 330 to 3300 nM

Problem: I'd like to know its IC50. The compound in question is CC(C)(C)SC[C@H](NCc1ccc(CNCc2ccc3cc(C(=O)NO)sc3c2)cc1)C(=O)OC1CCCC1 [Compound 113]
Result: 330 to 3300 nM

Problem: I'd like to know its IC50. The compound in question is O=C(CCCCCCC(=O)N1Cc2[nH]c3ccccc3c2C[C@H]1C(=O)N[C@H](C(=O)O)c1ccccc1)NO [Compound 4]
Result: > 3300 nM

Problem: I'd like to know its IC50. The compound in question is CC(OC(C)(C)C)[C@H](NCc1ccc(NC(=O)CCCCCCC(=O)NO)cc1)C(=O)OC1CCCC1 (some centres unmarked) [Compound 88]
Result: < 330 nM

Problem: I'd like to know its IC50. The compound in question is CC(C)C[C@H](NCc1cccc(NCc2ccc3cc(C(=O)NO)sc3c2)c1)C(=O)OC1CCCC1 [Compound 133]
Result: 330 to 3300 nM

Problem: I'd like to know its IC50. The compound in question is O=C(CCCCCCNC(=O)c1cc2cc(CCC(=O)N[C@@H](Cc3ccccc3)C(=O)OC3CCCC3)ccc2[nH]1)NO [Compound 100]
Result: 330 to 3300 nM

Problem: I'd like to know its IC50. The compound in question is O=C(Cc1ccc(OCCCC(=O)N[C@@H](Cc2ccccc2)C(=O)OC2CCCC2)cc1)Nc1ccc2sc(C(=O)NO)cc2c1 [Compound 102]
Result: 330 to 3300 nM

Problem: I'd like to know its IC50. The compound in question is CC(C)C[C@H](NCc1ccc(CNCc2ccc3cc(C(=O)NO)sc3c2)cc1)C(=O)OC1CCCC1 [Compound 122]
Result: < 330 nM

====

Each record here notes measured IC50.
Molecular target: histone deacetylase activity (HeLa nuclear extract)
Construct: Histone deacetylase activity from crude nuclear extract derived from HeLa cells was used for screening
Experiment: HDAC fluorescent activity assay (Biomol Fluor de Lys), HeLa nuclear extract
Conditions: Fluor de Lys substrate, IC50 range

Here is how some compounds turned out for IC50.
Compound	IC50
O=C(CCCCCNC(=O)c1cccc(CN[C@H](C(=O)O)c2ccccc2)c1)NO [Compound 70]	101 to 1000 nM
O=C(CCCCCCC(=O)Nc1cccc(CN[C@@H](Cc2ccccc2)C(=O)OC2CCCC2)c1)NO [Compound 28]	101 to 1000 nM
O=C(CCCCCCC(=O)Nc1cccc(CNC(=O)N[C@@H](Cc2ccccc2)C(=O)O)c1)NO [Compound 82]	101 to 1000 nM

Problem: Test system histone deacetylase activity (HeLa nuclear extract); read-out IC50; what value for CC(OC(C)(C)C)[C@H](NCc1ccc(NC(=O)CCCCCCC(=O)NO)cc1)C(=O)OC1CCCC1 (stereo partly drawn) [Compound 88] ?
Result: 101 to 1000 nM

Problem: Test system histone deacetylase activity (HeLa nuclear extract); read-out IC50; what value for O=C(CCCCCCC(=O)Nc1ccc(S(=O)(=O)N[C@H](C(=O)O)c2ccccc2)cc1)NO [Compound 23] ?
Result: 101 to 1000 nM

Problem: Test system histone deacetylase activity (HeLa nuclear extract); read-out IC50; what value for CC(C)C[C@H](NCc1ccc(CNCc2ccc3cc(C(=O)NO)sc3c2)cc1)C(=O)OC1CCCC1 [Compound 122] ?
Result: < 100 nM

Problem: Test system histone deacetylase activity (HeLa nuclear extract); read-out IC50; what value for CC(C)C[C@H](NC(=O)c1ccc(NC(=O)CCCCCCC(=O)NO)cc1)C(=O)O [Compound 99] ?
Result: > 1000 nM

Problem: Test system histone deacetylase activity (HeLa nuclear extract); read-out IC50; what value for O=C(CCCCCCC(=O)Nc1cccc(CN[C@H](C(=O)OC2CCCC2)c2ccccc2)c1)NO [Compound 36] ?
Result: < 100 nM

Problem: Test system histone deacetylase activity (HeLa nuclear extract); read-out IC50; what value for O=C(CCCCCCC(=O)Nc1cccc(CN[C@@H](CCc2ccccc2)C(=O)OC2CCCC2)c1)NO [Compound 31] ?
Result: 101 to 1000 nM

Problem: Test system histone deacetylase activity (HeLa nuclear extract); read-out IC50; what value for O=C(NO)c1cc2ccc(CNc3cccc(CN[C@H](C(=O)OC4CCCC4)c4ccccc4)c3)cc2s1 [Compound 130] ?
Result: > 1000 nM

Problem: Test system histone deacetylase activity (HeLa nuclear extract); read-out IC50; what value for O=C(CCCCCCC(=O)N1Cc2[nH]c3ccccc3c2C[C@@H]1C(=O)N[C@H](C(=O)OC1CCCC1)c1ccccc1)NO [Compound 1] ?
Result: 101 to 1000 nM

Problem: Test system histone deacetylase activity (HeLa nuclear extract); read-out IC50; what value for O=C(NO)c1cc2ccc(CNCC3CCC(CN[C@H](C(=O)O)c4ccccc4)CC3)cc2s1 (stereo partly drawn) [Compound 127] ?
Result: 101 to 1000 nM

Problem: Test system histone deacetylase activity (HeLa nuclear extract); read-out IC50; what value for O=C(CCCCCCC(=O)Nc1ccccc1CN[C@H](C(=O)O)c1ccccc1)NO [Compound 41] ?
Result: > 1000 nM

====

Target: histone deacetylase activity (HeLa nuclear extract)
Construct: Histone deacetylase activity from crude nuclear extract derived from HeLa cells was used for screening
Test: HDAC fluorescent activity assay (Biomol Fluor de Lys), HeLa nuclear extract
Conditions: Fluor de Lys substrate, IC50 range
Metric: IC50

Compound	Measured on	IC50
CC(C)C[C@H](NC(=O)c1ccc(NC(=O)CCCCCCC(=O)NO)cc1)C(=O)OC1CCCC1 [Compound 98]	histone deacetylase activity (HeLa nuclear extract)	101 to 1000 nM
CCOC(=O)[C@H](Cc1ccccc1)NCc1cccc(NC(=O)CCCCCCC(=O)NO)c1 [Compound 26]	histone deacetylase activity (HeLa nuclear extract)	< 100 nM
O=C(CCCCCCC(=O)N1CCc2c([nH]c3ccc(OCC(=O)N[C@H](C(=O)OC4CCCC4)c4ccccc4)cc23)C1)NO [Compound 24]	histone deacetylase activity (HeLa nuclear extract)	101 to 1000 nM
O=C(O)CNCc1ccc(CNCc2ccc3cc(C(=O)NO)sc3c2)cc1 [Compound 121]	histone deacetylase activity (HeLa nuclear extract)	< 100 nM
CC(OC(C)(C)C)[C@H](NCc1ccc(CNCc2ccc3cc(C(=O)NO)sc3c2)cc1)C(=O)OC1CCCC1 (stereo partly drawn) [Compound 108]	histone deacetylase activity (HeLa nuclear extract)	101 to 1000 nM

Problem: I'd like to know its IC50. The compound in question is O=C(Cc1ccc(OCCCC(=O)N[C@@H](Cc2ccccc2)C(=O)O)cc1)Nc1ccc2sc(C(=O)NO)cc2c1 [Compound 103]
Result: < 100 nM

Problem: I'd like to know its IC50. The compound in question is COc1ccc2[nH]c3c(c2c1)CCN(C(=O)CCCCCCC(=O)NO)C3C(=O)N[C@H](C(=O)O)c1ccccc1 (stereo partly drawn) [Compound 12]
Result: 101 to 1000 nM

Problem: I'd like to know its IC50. The compound in question is O=C(NO)c1cc2ccc(CNCC3CCC(CN[C@H](C(=O)OC4CCCC4)c4ccccc4)CC3)cc2s1 (stereo partly drawn) [Compound 126]
Result: 101 to 1000 nM

Problem: I'd like to know its IC50. The compound in question is CC(C)C[C@H](NC(=O)[C@@H]1Cc2ccc(NC(=O)CCCCCCC(=O)NO)cc2CN1)C(=O)O [Compound 97]
Result: 101 to 1000 nM

Problem: I'd like to know its IC50. The compound in question is O=C(CCCCCCC(=O)N1Cc2ccccc2C[C@H]1C(=O)N[C@@H](Cc1ccccc1)C(=O)O)NO [Compound 49]
Result: 101 to 1000 nM
